Measured values drawn from the nanobody polyreactivity screen of Harvey et al. (2022) for this set.

Assay: yeast display, Sf9 membrane polyspecificity reagent, FACS + sequencing; frameworks hold sequencing errors
result_type: polyreactivity (PSR sort gate)

>>> result("QVQLVESGGGLVQAGVSHRLSCAASGRTFPGNAMGWYRQAPGKEREFVAAISYSGGRTYYADSVKGRFTISRDNAKNTVYLLMNSLKPEDTAVYYCAKRIVQPSVAAYYYWGLGTQVTVSS")
"high polyreactivity"
>>> result("QVQLVESGGGLVQAGGSLRLSCAASGFTFVNHAMGWYRQAPGKERELVAAISGGRTTNYADSVKGRFTISRDNAKNTVYLQMNSLKPEDTAVYYCAARRYFGLWYFWYDYWGQGTQVTVSS")
"high polyreactivity"
>>> result("QVQLVESGGGLVQAGGSLRLSCAASGSIFQYNTMGWYRQAPGKERELVAAINWSGVSTYYADSVKGRFTISRDNAKNTVYLQMNILKPEDTAVYYCNARRYVDGSYIYDRGYWGQGTQVTVSS")
"high polyreactivity"
>>> result("QVQLVESGGGLDQAGGSLRLSCAASGRTNAPYAMGWYRPAPGKERELVAAISGGGSTNYADSVKGRFTISRDNAKNSVYLQMNSLKPEDTAVYSCAADQYHGVGINFRSDYDYWGQGTQVTVSS")
"low polyreactivity"
>>> result("QVQLVESGGGLVQAGGSLRLSCAASGSTFHLNAMGWYRQAPGKERELVAAISWDGSSTSYADSVKGRFTISRDNANNTVYLQMNSLKPEDTAVYYCAADDTLDRVPTTFIDGSPGYGYWGQGTQVTVSS")
"low polyreactivity"

====

Assay: yeast display, Sf9 membrane polyspecificity reagent, FACS + sequencing; frameworks hold sequencing errors
result_type: polyreactivity (PSR sort gate)

>>> result("QGQHVETGGGLVQAGGRLRLSCAASGSTLRDYVMGWSRQAPGKERELVAAITSRVDDTYYADSVKGRFTISRDNAKNTVYLQMNSLKPEDTAVYYCAADSSVTLRIGGYYWFYAFDYWGQGTQVTVSS")
"low polyreactivity"
>>> result("QVQLVESGGGLVQAGGSLRLSCAASGSTYRPYAMGWYRQAPGKERELVAAITGSGGSTYYADSVKGRFTISRDNAKITDYLQMNSLKPEDTAVYYCNAVSTWRYYYWGQGTQVTVSS")
"high polyreactivity"
>>> result("QVQLVESGGGLVQAGGSLRVSCAASGSNFLGYTMGWYRQAPGKERELVAAINSSGGSTYYADSVKGRFTISRDNAKNNVYLQMNSLKPEDTAVYYCADANSILLFDSWGQGTQVTVSS")
"low polyreactivity"
>>> result("QVQLEESGGGLVQAGGSLRLSCAASGMILTYYAMAWNRQAPGKERELVAGISSGTNTNYADSVKWRFTISRDNAKNTVYLQMNSLKPEDTAVYYCANTRGYEFVAYGYWGQGTQVNVSS")
"low polyreactivity"
>>> result("QVQLVESGGGLVQAGGSLRLSCAASGFIFAINAMGWYRQAPGKEREFVAAISSDGASTYYADSVKGRFTISRDNAKNTVYFQMNSLKPEDTAVYYCNAVPYEWTYPYEYYYWGQGTQVTVSS")
"low polyreactivity"
>>> result("QVQLVESGGGLVQAGGSLRLSCAASGSIFRVYAMGWYRQAPGKEREFVAAITRRGTRTYYADSVKGRFTISRDNAKNTVYLQMNSLKPEDTAVYYCAAYFTEGLYEYWGQGTQVTLSS")
"low polyreactivity"
>>> result("QVQLVESGGGLVQAGGSLRLSCAASGFIFDINAIGWYRQAPGKERELVAAISYSGGSTYYADSVKGRFTISRDNAKNTVYLQMNSLKPEDTAVYYCAADSGPDSDEGDYWGQGTQVTVSS")
"low polyreactivity"
>>> result("QVQLVESGGGLVQAGGSLRLSCAASGFTFYYYAMGWYRQAPGKERELVASISWRGGSTYYADSVKGRFTISRDNAKITVYLQMNSLKPEDTAVYYCAAQKRGSPGYRRDYWGQGTQVTVSS")
"high polyreactivity"
>>> result("QVQLQESGGGLVQAGGNLRLSCAASGYISRWYGMGWYRQAPGKERELVAGMSPGGSTYYADSVKGRITISRDNAKNTVYLQMNSLKPEDTAVYYCAAQDFQDSIYFYWGQGTQVTVSS")
"high polyreactivity"
>>> result("QVQLVQSGGGLVQAGGSLRLSCAASGRIFGSYAMGWSRQAPGKERELGAAISYSGGSTYYADSVKGRFTMSRDNAKNTVYLQMHSLKPEDTAVYYCNVDRYYGYFSVRGGYWGQGTQGTVSS")
"low polyreactivity"
>>> result("QVQLVESGGGLVQAGGSLRLSCAASGFTFVNYVMGWYRQAPGKERELVAAISRSGGSTYYADSVKGRFTISRDNAKNTVYLQMNSLIPEDTAVYYCAARWFYRAGFNYWGQGTQVTVSS")
"high polyreactivity"
>>> result("QVQLVESGGGVVQPGGSLSLSCAGSGITFWYYDLVWSRQAPGKERELVATITSSGSTYYADSVKGRFTISRDNAKNTVYLQKNSLKPEDTAVYFCAPQYGYSYYSGRYGYWGQGTQVTVSS")
"high polyreactivity"
>>> result("QVQLVESGGGLVQAGGSLRLSCAASGTFYRNAMGWYRQAPGKERELVAAISSGSNTDYADSVKGRFTISRDNAKNTVYVQMNSLKPEDTALYYCNADRGDLYDLRGSGYLDGYWGQGTQVTVSS")
"low polyreactivity"
>>> result("QVQLQESGGGLVQAGGSLRQSCAASGYIFQPFYMGWYRQAPGKERELVAGISVGGNTYYADSVKGRFTISRDNAKNSVFLQMNSLKPEDTAVYYCAVQFVLQDKYVYWGQGTQVTVSS")
"low polyreactivity"
>>> result("QVQLVESGGGLVQAGGSLRLSSAPSGIIIDYYAMGWYRQSPGKERELVAAITSGGSTSYADSEKGGFTISRDNAKKTVYLQMNSLKPEDTAVYYCNTEPSGYESGYWGQGTQVTVSS")
"low polyreactivity"
>>> result("QVQLVESGGGLVQAGGSLRLSCAACGRIFTYNAMGWYRQAPGKERELVAAISSSGGRTYYADSVKGRFTISRDNAKNTLYLEMNSLKPEDTAVYYCARAYREGGRTQRGDYWGQGTQVTVSS")
"high polyreactivity"
>>> result("QVQLVESGGGLVQAGGSLRLSCAASGSTFGPYVMGWYRQAPGKERELVATITSDDSTNYADSVKGRFTISRDNAKNTVYLQMNSLKPEDTAVYYCAVERDYWTKASYYWGQGTQVTVSS")
"low polyreactivity"
>>> result("QVQLVESGGGLVQAGGSLRLSCSASGSIFSANVMGWYRQAPGKDRELVAAIRRGGTTYYADSVKGRFTISRDNAKNTVYLQMNSLKPEDNAVYYCATDGIFGSYLRFEVAYDYWGQGTQVTVSS")
"low polyreactivity"
>>> result("QVQLVESGGGLVQAGGSLRLSCAASGSIFVDYAMGWSRQAPGKERELVAAITSGGRTNYADSVKGRFTISRDNAKNTVYLQMNSLKPEDTAVYYCNKTRYTNYYTTTFDYWGQGTQVTVSS")
"low polyreactivity"
>>> result("QVQLVESGGGLAQAGCSLRLSCAASGRLFRGNAMGGYRQAPGKERELVARITGNDGDTYYADSVKGRFTISRDNAKNTVYLQMNSLKPEDTAVYYCATDTSSYRRRYYYWGQGTQVTVSS")
"low polyreactivity"
>>> result("QVQLVESGGGLVQAGGSLRLSCAASGIIFSPNAMGWYRQAPGKERELVAGISSGGSTYYADSVKGRFTLSRDNAKNTVYLQMNSLKPEDTAVYYCAVRSRIFGSWYGYGYWGQGTQVTVSS")
"high polyreactivity"

====

Test: yeast display, Sf9 membrane polyspecificity reagent, FACS + sequencing; frameworks hold sequencing errors
result_type: polyreactivity (PSR sort gate)

>>> result("QVQLVESGGGLVQAGGSLRLSCAASGSTFGAYAMGWYRQAPGKERELVAVINSDGSTNYADSVKGRFTISRDNAKHTVYLQMNSLKPEDTAVYYCAKDRTSRGGVPRMNYWGQGTQVTVSS")
"low polyreactivity"
>>> result("QVQLEESVGGLVQAGGSLRIICAASGSIFSVNSIGWSRQAPGKERELVAAITRDSGSTNYADSVKGRFTISRDNAKNTVYLQMNSLKPEDTAVYYCAADFYYNVSTTIVNFSYDYWGHGTQVTVSS")
"high polyreactivity"
>>> result("QVQLVESGGGLVQAGGSLRLSCAASGSIFGYYAMGWYRQAPGKERELVAAISYRGGSTYYADSVKGRFTISRDNAKNTVYLQMNSLKPEDTAVYYCNAPFLGAHHYGYEYWGQGTQVTVSS")
"high polyreactivity"
>>> result("QVHLLESWGGLFHAGGSPRLSCAASGRTFGRYAMGWYRQSPATERELVAAITFRGGHSYYADSVKGRFTISRDNAKNTVYFQMNSLKPEDTAVYYCAKRGGYWHKFDYWGQGTQVTVSS")
"high polyreactivity"
>>> result("QVHLVESGGGLVQAGGSLRLSCAASGRTLAPNAMGWYRQAPGKERELVATITRGGTTNYADSVKGRFTISRDNAKNTVYLQMNSLKPEDTAVYYCAAGYPSWYYGYPYDSWGQGTQVTVSS")
"low polyreactivity"
>>> result("QVQLVESGGGLVQAGGSLRLSCAASGFTFNWYAMGWYRQAPGKERELVAAINSSGGNTYYADSVKGRFTISRDTAKNTVYLQMNSLKPDDTAVYYCVFVYVYDYYYWGQGTQVTVSS")
"high polyreactivity"
>>> result("QVQLVESGGGLVQAGGSLRLSCAASGFISVSNAMGWYRQAPGKERELVAAIRGSGGSTYYADSVKGRFTISRDNAKNTVYLQMNSLKPEDTAVYYCAATAYPRGSPPYNYWGQGTQVTVSS")
"high polyreactivity"
>>> result("QVQLVESVGGLVQAGGSLRISCAASGSTFPWYAMGWYRQAPGKERELVASITSGTTTNYADSVKGRFTISRDNAKNTVYLQRNSLKPEDTADYYCAASWVYQYDYWGQGTQVSVSS")
"low polyreactivity"
>>> result("QVQLVESGVGLVQAGGSLRLSCAASGSISDVYAMGVYRQAPGKERDLVAAITSGASTYYADSVKGRFTISLDNAKNTVYLQINSLKPEDTAVYYCSAGYSDWYYAAYNSWGQGTQVTVST")
"low polyreactivity"
>>> result("QVQLVESGGGLVQAGGSLRLSCAASGRTFRIYAMGWYRQAPGKEREFVAAITWSGGRTYYADSVKGRFTISRDNAKNTVYLQMNSLKPEDTAVYYCAADPTYLRTLRFGSYDYWGQGTQVTVSS")
"high polyreactivity"
>>> result("QVQLVESGGGLVQAGGSLRLSCAASGFTSGYYAMGWYRQAPGKERELVAAISFSGDDTYYADSVKGRFTISRDNAKNTVYLQMNCLKPEVTAVYYCAAEYDLYFLDQGYWYVAFDYWGQGTQVTVSS")
"high polyreactivity"
